# Tested on: Lewis lung carcinoma (LLC) tumour
# assayOverview: Biodistribution in LLC tumour model in vivo
# Set-up: species or system C57BL/6 mice
# testContext: 60 min post injection
endpointName: Tumour/Lung, mean

# example entries with known answers
{"compound": "NC(=O)[C@H](Cc1ccc(O)c([123I])c1)NC(=O)CCOCCOCCOCCOCCOCCOCCOCCOCCOCCOCCOCCNC(=O)CCOCCOCCOCCOCCOCCOCCOCCOCCOCCOCCOCCNC(=O)CCN(C1(C(=O)NO)CCCC1)S(=O)(=O)c1ccc(Oc2ccc(F)cc2)cc1 [Compound 32A]", "Tumour/Lung, mean": 0.69}
{"compound": "NC(=O)[C@H](Cc1ccc(O)c([123I])c1)NC(=O)COCC(=O)NCCOCCOCCOCCNC(=O)[C@H](CCC(=O)O)NC(=O)[C@H](CCC(=O)O)NC(=O)[C@H](CCC(=O)O)NC(=O)[C@H](CCC(=O)O)NC(=O)[C@H](CCC(=O)O)NC(=O)CCN(C1(C(=O)NO)CCCC1)S(=O)(=O)c1ccc(Oc2ccc(F)cc2)cc1 [Compound 38A]", "Tumour/Lung, mean": 0.83}

P: NC(=O)[C@H](Cc1ccc(O)c([123I])c1)NC(=O)CCOCCOCCOCCOCCOCCOCCOCCOCCOCCOCCOCCNC(=O)CCN(C1(C(=O)NO)CCCC1)S(=O)(=O)c1ccc(Oc2ccc(F)cc2)cc1 [Compound 44A]
Q: O=C(CCN(C1(C(=O)NO)CCCC1)S(=O)(=O)c1ccc(Oc2ccc(F)cc2)cc1)NCCc1ccc(O)c([123I])c1 [Compound 24A]
Lab note: check whether P or Q has the lower measured Tumour/Lung, mean. Respond using the label that marks the chosen record.
Q
